# target-system: T1, CRBN, Q96SW2;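 also: pooled lentiviral library of zinc finger degron-EGFP fusions in mCherry-positive Jurkat cells, FACS-sorted after compound exposure, with degron abundance counted by next-generation sequencing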
# T1 chain: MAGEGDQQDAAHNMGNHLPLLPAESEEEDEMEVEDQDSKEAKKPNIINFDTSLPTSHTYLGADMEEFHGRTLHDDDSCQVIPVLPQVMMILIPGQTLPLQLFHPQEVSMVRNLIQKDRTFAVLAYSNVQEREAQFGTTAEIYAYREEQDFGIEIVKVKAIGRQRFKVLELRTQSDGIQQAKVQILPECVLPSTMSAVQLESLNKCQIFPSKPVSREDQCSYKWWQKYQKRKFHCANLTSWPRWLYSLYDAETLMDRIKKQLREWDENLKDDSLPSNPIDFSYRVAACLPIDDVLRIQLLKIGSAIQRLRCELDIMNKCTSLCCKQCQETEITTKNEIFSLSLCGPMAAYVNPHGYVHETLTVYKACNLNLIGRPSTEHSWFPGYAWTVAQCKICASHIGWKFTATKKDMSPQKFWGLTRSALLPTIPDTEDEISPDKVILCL
# assay-info: log2 fold change of degron read counts, EGFP-low vs EGFP+ sorted cells (limma voom), compound-induced degradation; higher = more compound-induced degradation of the degron-EGFP fusion; degrons are variants of IKZF1/3 zinc finger 2; compound dose not given here
# details: Jurkat; 18 h; compound: thalidomide
The full ranking holds about 8,300 sequences; the median of “log2 fold change of degron read counts, EGFP-low vs EGFP+ sorted cells (limma voom), compound-induced degradation” is about -1.1, and the highest 2% start at about 3.2. The list comes from a sample in which the highest values are over-represented; it also holds close analogues and randomly drawn sequences.
Classify as follows. Reported log2 fold change of degron read counts greater than or equal to -0.8: label 1. Reported log2 fold change of degron read counts below: label 0.

construct_sequence="FMCEICGRFFTQKGNLLRHIKL [46F_47M_49E_50I_52G_53R_54F_55F_67L_, Q9UKT9]" group_label="label 0"
construct_sequence="FMCEICGHFFTQKGNLLRHIKL [46F_47M_49E_50I_52G_53H_54F_55F_67L_, Q9UKT9]" group_label="label 0"
construct_sequence="FSCNVCGAPFTQKGNLLRHIKL [46F_47S_49N_50V_52G_53A_54P_55F_67L_, Q9UKT9]" group_label="label 1"
construct_sequence="LMCEICGFLCTQKGNLLRHIKL [46L_47M_49E_50I_52G_53F_54L_55C_67L_, Q9UKT9]" group_label="label 1"
construct_sequence="FNCPICGHAFTQKGNLLRHIKL [46F_47N_49P_50I_52G_53H_54A_55F_67L_, Q9UKT9]" group_label="label 0"
construct_sequence="FKCEVCGACFTQKGNLLRHIKL [46F_47K_49E_50V_52G_53A_54C_55F_67L_, Q9UKT9]" group_label="label 1"
construct_sequence="FSCPICGAWFTQKGNLLRHIKL [46F_47S_49P_50I_52G_53A_54W_55F_67L_, Q9UKT9]" group_label="label 1"
